B1: CPEB3 Ribozyme (parent)
chain: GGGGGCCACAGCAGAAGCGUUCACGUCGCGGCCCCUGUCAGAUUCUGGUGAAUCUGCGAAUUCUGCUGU

Variants of: B1
Test: self-cleavage, relative activity (ratio to wild type); higher = more cleavage; co-transcriptional
assay-metric: self-cleavage
Hey, just send me the number, nothing else.

# count of solved cases: 10
variant-string | assay-metric | test-result
A51U C63G | self-cleavage | 0.815
G5U G25A | self-cleavage | 0.0881
G31A G41U | self-cleavage | 0.512
C18G A42G | self-cleavage | 0.229
C18A G31C | self-cleavage | 0.124
G50A A59U | self-cleavage | 0.834
C57G G65C | self-cleavage | 0.428
G47U U64G | self-cleavage | 0.913
U20C A59C | self-cleavage | 0.124
G17C G58C | self-cleavage | 0.198

Reported self-cleavage, variant A42C U55C : ____ 0.328

Reported self-cleavage, variant G2U G37U : ____ 0.0465

Reported self-cleavage, variant G2A C9U : ____ 0.493

Reported self-cleavage, variant C45A U64C : ____ 0.842

Reported self-cleavage, variant A40G U67C : ____ 0.901

Reported self-cleavage, variant G37A U43C : ____ 0.261

Reported self-cleavage, variant G2A G47C : ____ 0.176

Reported self-cleavage, variant G2A U36A : ____ 0.0357

Reported self-cleavage, variant G30U G31A : ____ 0.196

Reported self-cleavage, variant A23U U53C : ____ 0.928

Reported self-cleavage, variant A10U U67C : ____ 1

Reported self-cleavage, variant C24A U26G : ____ 0.283

The measured values listed here are drawn from the RNAGym collection of RNA variant scans (doi:10.7554/elife.80360).
